Would you mind telling me the reported koff of each entry?
- Assayed system: T1, human transferrin receptor (recombinant, for surface plasmon resonance) (human, UniProt P02786 89-760)
- T1 construct: also called huTfR; human transferrin receptor-biotinylated
- T1 sequence (P02786 89-760 limits assumed): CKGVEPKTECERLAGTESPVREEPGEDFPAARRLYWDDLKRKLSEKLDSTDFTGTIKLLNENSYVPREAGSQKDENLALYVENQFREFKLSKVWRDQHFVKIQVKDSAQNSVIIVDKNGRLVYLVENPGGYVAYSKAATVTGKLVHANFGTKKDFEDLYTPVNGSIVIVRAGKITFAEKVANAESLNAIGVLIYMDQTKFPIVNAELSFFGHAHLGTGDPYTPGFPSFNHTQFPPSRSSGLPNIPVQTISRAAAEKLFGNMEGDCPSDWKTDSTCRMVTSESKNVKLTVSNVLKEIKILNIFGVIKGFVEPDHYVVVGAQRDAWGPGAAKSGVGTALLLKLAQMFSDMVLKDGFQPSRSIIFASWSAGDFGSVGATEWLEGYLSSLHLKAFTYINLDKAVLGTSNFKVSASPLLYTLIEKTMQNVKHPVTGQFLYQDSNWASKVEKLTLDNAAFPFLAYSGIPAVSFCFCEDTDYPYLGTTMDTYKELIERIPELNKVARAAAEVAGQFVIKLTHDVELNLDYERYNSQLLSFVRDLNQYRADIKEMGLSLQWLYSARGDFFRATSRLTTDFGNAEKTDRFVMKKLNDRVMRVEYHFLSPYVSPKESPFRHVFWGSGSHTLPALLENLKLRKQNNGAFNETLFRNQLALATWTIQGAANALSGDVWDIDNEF
- Assay overview: SPR 25C
Number first, unit second: that is the form wanted.

Query :: Look up koff: 2/99 VH17/VL7 (antibody, V domains shown) VH: QQLQESGPGLVKPSETLSLTCTVSGFSLSSYAMSWVRQPPGKGLEWIGYIWSGGSTDYNPSLKSRVTISKDTSKNQVSLKLSSVTAADTAVYYCARRYGTSYPDYGDANGFDPWGPGTLVTVSS VL: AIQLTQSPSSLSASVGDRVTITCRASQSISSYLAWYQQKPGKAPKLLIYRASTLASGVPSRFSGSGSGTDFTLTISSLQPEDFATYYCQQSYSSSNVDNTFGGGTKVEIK
Result :: 0.00233 s⁻¹

Query :: Check 2/99 VH7/VL2 (antibody, V domains shown) VH: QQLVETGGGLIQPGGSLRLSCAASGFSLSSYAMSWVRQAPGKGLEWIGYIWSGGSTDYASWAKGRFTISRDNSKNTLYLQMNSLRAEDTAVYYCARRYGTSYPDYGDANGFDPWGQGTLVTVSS VL: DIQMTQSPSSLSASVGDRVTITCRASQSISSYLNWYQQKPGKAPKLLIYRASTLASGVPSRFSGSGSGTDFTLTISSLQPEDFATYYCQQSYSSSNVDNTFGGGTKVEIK too.
Result :: 0.00131 s⁻¹
